The measurements presented in this section are drawn from ChEMBL document CHEMBL5247575.

- System: Klebsiella pneumoniae
- method_notes: Synergistic antibacterial activity against Klebsiella pneumoniae jefferson 1775 producing OXA-48 assessed as meropenem MIC at 4 ug/ml by broth microdilution method
- Format: functional
- condition_summary: dose 4 µg/ml
Consider the following compounds; for each one, report its MIC.

Known MIC results, listed for orientation:
compound	target_or_system	MIC
O=C(NNC(=O)[C@@H]1CC[C@@H]2CN1C(=O)N2OS(=O)(=O)O)[C@@H]1CCCNC1 [ZIDEBACTAM]	Klebsiella pneumoniae	≤ 0.12 mg/L
O.O=C(NC1CCNCC1)[C@@H]1CC[C@@H]2CN1C(=O)N2OS(=O)(=O)O [RELEBACTAM]	Klebsiella pneumoniae	2 mg/L
O=C(NNC(=O)[C@@H]1CC[C@@H]2CN1C(=O)N2OS(=O)(=O)O)[C@@H]1CCNC1	Klebsiella pneumoniae	≤ 0.12 mg/L
NC(=O)[C@@H]1CC[C@@H]2CN1C(=O)N2OS(=O)(=O)[O-].[Na+] [AVIBACTAM SODIUM]	Klebsiella pneumoniae	≤ 0.12 mg/L

Now consider a different compound.
Name the recorded MIC for N#C[C@@H]1CC[C@@H]2CN1C(=O)N2OS(=O)(=O)[O-].[Na+] . ≤ 0.12 mg/L
